Each entry below lists one item and its recorded normalized growth value.
- assayOverview: chemical genetic growth profiling, strain panel (AID 1159580);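 also: tested at 20 µM; growth read once vehicle control cultures reached saturation at 30 °C; 1 = growth at the plate median or of vehicle wells; lower values mean less growth of the strain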
- experimentalConditions: S. cerevisiae deletion strains, growth OD, locus YIL073C, strain SPO22, stronger effect = lower value
About 2,000 (36%) of roughly 5,500 compounds were called active. About 18% were inconclusive and are not listed. This is one part of the list.

molecule: NC(=O)c1ccc[n+]([C@@H]2O[C@H](COP(=O)([O-])OP(=O)(O)OC[C@H]3O[C@@H](n4cnc5c(N)ncnc54)[C@H](OP(=O)(O)O)[C@@H]3O)[C@@H](O)[C@H]2O)c1
normalized growth: 1.02
--
molecule: CC1COc2c(N3CCN(C)CC3)c(F)cc3c(=O)c(C(=O)O)cn1c23 (centres undefined)
normalized growth: 1.1
--
molecule: C[C@@H]1O[C@@H](O[C@H]2[C@H](Oc3cc(O)c4c(=O)cc(-c5ccc(O)cc5)oc4c3)O[C@H](CO)[C@@H](O)[C@@H]2O)[C@H](O)[C@H](O)[C@H]1O
normalized growth: 0.981
--
molecule: O=C(O)CCCc1ccc(N(CCCl)CCCl)cc1
normalized growth: 1.02

----------
- assayOverview: chemical genetic growth profiling, strain panel (AID 1159580);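 also: tested at 20 µM; growth read once vehicle control cultures reached saturation at 30 °C; 1 = growth at the plate median or of vehicle wells; lower values mean less growth of the strain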
- experimentalConditions: S. cerevisiae deletion strains, growth OD, locus YGR135W, strain pre9
The campaign covered roughly 5,500 compounds. About 2,000 (36%) were called active. Not shown: some 18% with an inconclusive outcome. Cut-off read from the data, not from the text of the source: active = normalized growth mostly below about 0.91 (no sharp cut-off); inconclusive = no clear call, values can overlap the other calls; inactive = mostly above about 0.92. The list shows a part of the results.
Classes used: YES = active, NO = inactive

compound: COC(=O)/C=C/C(C)=C/C=C/C(C)=C/C=C/C=C(C)/C=C/C=C(C)/C=C/C(=O)O
className: NO

compound: CN1C2CCC1CC(OC(c1ccccc1)c1ccccc1N)C2 (stereo not drawn)
className: NO

compound: COc1cc2c(cc1OC)C(=O)c1ccc(OC)c(OC)c1OCC(=O)C2
className: NO

compound: COc1ccc(-c2coc3cc(O)ccc3c2=O)c(OC)c1
className: NO

compound: NCCCS(=O)(=O)O
className: NO

compound: COC(=O)[C@@H]1OC(=O)C2OC23[C@@]1(C)CCC1[C@]2(C)C(C[C@H](O)[C@]13C)C(C)(C)[C@H](OC(C)=O)C[C@@H]2OC(C)=O (stereo partly drawn)
className: NO

compound: C=C1CCC2[C@](C)(CO)[C@H](O)CC[C@@]2(C)[C@@H]1C/C=C1/C(=O)OC[C@H]1O (stereo partly drawn)
className: NO

compound: CC[C@@]1(O)C[C@H](O[C@H]2C[C@H](N(C)C)[C@H](O)[C@H](C)O2)c2c(cc3c(c2O)C(=O)c2c(O)ccc(O)c2C3=O)[C@H]1C(=O)OC
className: YES

compound: O=C(O)CCCc1ccc(N(CCCl)CCCl)cc1
className: NO

compound: COc1ccc(-c2coc3cc(OC)ccc3c2=O)cc1
className: YES

compound: CCC1(O)CC(OC2CC(N(C)C)C(OC3CC(O)C(OC4CCC(=O)C(C)O4)C(C)O3)C(C)O2)c2c(cc3c(c2O)C(=O)c2c(O)cccc2C3=O)C1C(=O)OC (stereo not drawn)
className: NO

compound: C=CCc1ccc(O)c(OC)c1
className: NO

compound: C=C[C@@](C)(O)CCC1C(=C)CCC2[C@@](C)(CO)CCC[C@]12C (stereo partly drawn)
className: NO

compound: C=C1C2CC[C@@]3(C)[C@H](c4ccoc4)OC(=O)C[C@]13O[C@H]1CC(=O)C(C)(C)[C@H](C(OC(C)=O)C(=O)OC)[C@@]21C (stereo partly drawn)
className: NO

compound: CNC(=O)O/N=C(\C)SC
className: NO

compound: c1ccc2c(c1)CCCC2C1=NCCN1 (stereo not drawn)
className: NO

compound: N[C@@H](Cc1ccc(N(CCCl)CCCl)cc1)C(=O)O
className: NO

compound: COc1ccc(-c2coc3cc(O)ccc3c2=O)cc1
className: YES
